Measured values drawn from ChEMBL document CHEMBL5046282 for this set.

# Assay procedure: Cmax in non-fasted ICR mouse at 5 mg/kg, po by LC-MS/MS analysis
# Format: ADME, organism-based
# Set-up: route oral, dose 5 mg/kg
# Experimental context: in vivo
Below, each entry is listed with its recorded Cmax.
Please respond with the number in ng/mL and leave the unit unwritten.

Exercise: Item CC(C)(O)c1ccc(NC(=O)c2ccnn(-c3ccccc3OCC(F)(F)F)c2=O)cc1 has what recorded Cmax?
Key: 416

Exercise: Item CC(C)(O)c1ccc(N2Cc3c(ccnc3-c3ccc(F)cc3OCC(F)(F)F)C2=O)cc1 has what recorded Cmax?
Key: 1180

---

Below, each entry is listed with its recorded microsomal CLint at 1 µM.
# Assay procedure: Intrinsic clearance in mouse liver microsomes at 1 uM in presence of NADPH generating system assessed per mg protein by LC-MS/MS analysis
# Type: ADME, Microsome
# Experimental context: read-out: CLH
Please respond with the number in µL/min/mg and leave the unit unwritten.

Example cases with answers are listed next.
| Smiles code | Readout units | microsomal CLint at 1 µM |
| --- | --- | --- |
| O=C1c2ccnc(-c3ccc(F)cc3OC(F)(F)F)c2CN1c1ccc(F)cc1 | µL/min/mg | 14 |
| CC(C)(O)c1ccc(NC(=O)c2ccnn(-c3ccccc3OCC(F)(F)F)c2=O)cc1 | µL/min/mg | 1 |
| COc1ccccc1-c1nccc2c1CN(c1ccccc1C)C2=O | µL/min/mg | 560 |

Please examine the following record next.
Exercise: Item COc1ccccc1-c1nccc2c1CN(C1CCCCC1)C2=O has what recorded microsomal CLint at 1 µM?
Key: 727
